biological target: human plasma protein factor Xa (Homo sapiens); construct: measure proteolytic activity of the enzyme (factor Xa); assay: Factor Xa IC50 determination: cleavage of paranitroanilide substrate S-2765 in 96-well plates; details: fXa 1 nM, S-2765 100 μM, Tris buffered saline pH 7.4, room temperature
Property: IC50; scope: individual compounds

1) N=C(c1ccc(-c2cc(CNC(=O)c3ccc(Cl)s3)no2)cc1)N1CCCC1 [Example 332] = ≤ 100 nM

What the record says about O=C(NCC1CC(c2ccc(Br)cc2)=NO1)c1ccc(Cl)s1 (centres unmarked) [Example 1] : IC50 is ≥ 500 nM

# IC50 (compound: O=C(NCC1CC(c2ccc(Nc3ccnc4cc(C(F)(F)F)ccc34)cc2)=NO1)c1ccc(Cl)s1 (centres unmarked) [Example 394] ) is ≤ 100 nM

Sample CN(C)Cc1cccc(-c2cccc(-c3cc(CNC(=O)c4ccc(Cl)s4)on3)c2)c1 [Example 270] ; IC50 observed: ≥ 500 nM

Form field IC50, entry COc1ccc(Oc2cc(C3=NCCN3C)ccc2-c2cc(CNC(=O)c3ccc(Cl)s3)on2)cc1 [Example 134] : ≤ 100 nM

Documented IC50 of COC(=O)c1ccc(-c2cc(CNC(=O)c3ccc(Cl)s3)on2)cc1 [Example 157] : ≥ 500 nM

GET /value?item= O=C(NCC1CC(c2ccc(Nc3c(Cl)cncc3Cl)cc2)=NO1)c1ccc(Cl)s1 (centres unmarked) [Example 402] &field=IC50 returns ≥ 500 nM

Input CN(C)C(=N)c1ccc(-c2ccc(F)c(CNC(=O)c3ccc(Cl)s3)c2)cc1 [Example 374] . Output IC50: ≤ 100 nM

###

biological target: human plasma protein factor Xa (Homo sapiens); construct: measure proteolytic activity of the enzyme (factor Xa); experiment: Factor Xa IC50 determination: cleavage of paranitroanilide substrate S-2765 in 96-well plates; details: fXa 1 nM, S-2765 100 μM, Tris buffered saline pH 7.4, room temperature
pIC50: −log10 of the molar value.
OBSERVABLE: pIC50

1. O=C(NCC1CC(c2ccc(-c3cc(Cl)ccc3CN3CCCC3)cc2)=NO1)c1ccc(Cl)s1 (stereo not shown) [Example 205] = ≥ 7.00

GET /value?item= O=C(NCc1cn(-c2ccc(-n3cccc(Cl)c3=O)cc2)nn1)c1ccc(Cl)s1 [Example 292] &field=pIC50 returns ≥ 7.00

Form field pIC50, entry CC(C)Oc1cc(C(=N)N2CCCCC2)ccc1-c1cc(CNC(=O)c2ccc(Cl)s2)on1 [Example 129] : ≥ 7.00

Short answer for Cc1cccn(-c2ccc(C3=NOC(CNC(=O)c4ccc(Cl)s4)C3)cc2)c1=O (stereo not shown) [Example 281] : pIC50 was ≥ 7.00

###

biological target: human plasma protein factor Xa (Homo sapiens, UniProt P00742); construct: measure proteolytic activity of the enzyme (factor Xa); test: Factor Xa IC50 determination: cleavage of paranitroanilide substrate S-2765 in 96-well plates; conditions: fXa 1 nM, S-2765 100 μM, Tris buffered saline pH 7.4, room temperature
Sequence (P00742 235-488 limits assumed): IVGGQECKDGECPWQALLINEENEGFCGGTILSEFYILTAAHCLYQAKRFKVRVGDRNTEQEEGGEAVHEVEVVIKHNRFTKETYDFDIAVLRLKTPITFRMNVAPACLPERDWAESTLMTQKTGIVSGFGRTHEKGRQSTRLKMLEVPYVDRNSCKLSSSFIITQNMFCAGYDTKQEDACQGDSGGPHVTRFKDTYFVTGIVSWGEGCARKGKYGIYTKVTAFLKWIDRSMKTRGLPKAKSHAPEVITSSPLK
Sequence (P00742 41-179 partner limits assumed): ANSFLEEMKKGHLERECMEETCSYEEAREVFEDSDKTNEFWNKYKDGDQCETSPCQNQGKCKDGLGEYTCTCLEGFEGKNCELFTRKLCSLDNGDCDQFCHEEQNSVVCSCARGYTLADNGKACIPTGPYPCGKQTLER
OBSERVABLE: IC50

Some entries whose results are on file:
1. CN1CCN=C1c1ccc(C2=NOC(CNC(=O)c3ccc(Cl)s3)C2)c(N2CCCCCC2)c1 (centres unmarked) = ≤ 100 nM
2. CCN1CCC(C2=NOC(CNC(=O)c3ccc(Cl)s3)C2)CC1 (centres unmarked) = ≥ 500 nM
3. O=C(NCC1CC(c2ccc(N3CCSCC3=O)cc2)=NO1)c1ccc(Cl)s1 (centres unmarked) = 100 to 500 nM
4. CN1CCN=C1c1ccc(-n2cc(CNC(=O)c3ccc(Cl)s3)nn2)c(F)c1 = ≤ 100 nM
5. CN1CCN=C1c1ccc(C2=NOC(CNC(=O)c3ccc(Cl)s3)C2)cc1 (centres unmarked) = ≤ 100 nM
6. C#CCN(C)C(=N)c1ccc(-c2nc(CNC(=O)c3ccc(Cl)s3)cs2)cc1 = ≥ 500 nM
7. O=C(NCc1cc(-c2cccc(-c3ccc(CN4CCCC4)cc3)c2)no1)c1ccc(Cl)s1 = ≥ 500 nM
8. N=C(c1ccc(-n2cnc(CNC(=O)c3ccc(Cl)s3)c2)cc1)N1CCCC1 = ≤ 100 nM
9. Cc1ccn(-c2ccc(-n3cc(CNC(=O)c4ccc(Cl)s4)nn3)cc2)c(=O)c1 = ≤ 100 nM
10. O=C(NCC1CC(c2cccc(-c3ccncc3)c2)=NO1)c1ccc(Cl)s1 (centres unmarked) = ≥ 500 nM

Briefly, IC50 measured for COCc1ccccc1-c1ccc(-c2cc(CNC(=O)c3ccc(Cl)s3)on2)cc1 : 100 to 500 nM

Entry under test: CSc1cc(C(=N)N2CCCC2)ccc1-c1cc(CNC(=O)c2ccc(Cl)s2)on1 . Its IC50 was ≤ 100 nM

The recorded IC50 for entry CNC(=N)c1ccc(-c2nc(CNC(=O)c3ccc(Cl)s3)cs2)cc1 equals ≥ 500 nM

So for CN1CCN=C1c1ccc(C2=NOC(CNC(=O)c3ccc(Cl)s3)C2)c(N2CCCC2)c1 (centres unmarked) , the logged IC50 turned out to be 100 to 500 nM

Record COCCN(C)C(=N)c1ccc(-c2nc(CNC(=O)c3ccc(Cl)s3)co2)cc1 . Reported IC50: 100 to 500 nM

For this molecule ( N=C(c1ccccc1)N1CCC(C2=NOC(CNC(=O)c3ccc(Cl)s3)C2)CC1 (centres unmarked) ), measured IC50 is ≥ 500 nM

According to the records, this molecule O=C(NCc1cn(-c2ccc(-n3cc(F)ccc3=O)cc2)nn1)c1ccc(Cl)s1 displays IC50 of ≤ 100 nM

###

Target: human plasma protein factor Xa (Homo sapiens)
Construct: measure proteolytic activity of the enzyme (factor Xa)
Experiment: Factor Xa IC50 determination: cleavage of paranitroanilide substrate S-2765 in 96-well plates
Settings: fXa 1 nM, S-2765 100 μM, Tris buffered saline pH 7.4, room temperature
Source text: This example illustrates methods for evaluating the compounds of the invention, along with results obtained for such assays. The in vitro and in vivo Factor Xa isoform activities of the inventive compounds can be determined by various procedures known in the art, such as a test for their ability to inhibit the activity of the Factor Xa isoform. […] The IC50 value is the concentration (in nM) of the compound required to provide 50% inhibition of Factor Xa isoform. […]
pIC50: −log10 of the molar value.
# reported pIC50; entries follow

1. N=C(c1ccc(C2=NOC(CNC(=O)c3ccc(Cl)s3)C2)c(N2CCCC2)c1)N1CCCCC1 (stereo not shown) = ≤ 6.30
2. CN(C)C(=N)c1ccc(C2=NOC(CNC(=O)c3ccc(Cl)s3)C2)c(N2CCCC2)c1 (stereo not shown) = 6.30 to 7.00

Recorded pIC50 (compound COc1ccc(CN(C)C)c(-c2ccc(-c3cc(CNC(=O)c4ccc(Cl)s4)on3)cc2)c1 ): ≤ 6.30

The reported value for CN(C)CCN(C)C(=N)c1ccc(-c2nc(CNC(=O)c3ccc(Cl)s3)cs2)cc1 in terms of pIC50 is ≤ 6.30

###

target: human plasma protein factor Xa (Homo sapiens); construct: measure proteolytic activity of the enzyme (factor Xa); assay: Factor Xa IC50 determination: cleavage of paranitroanilide substrate S-2765 in 96-well plates; conditions: fXa 1 nM, S-2765 100 μM, Tris buffered saline pH 7.4, room temperature
Listing of entries alongside the reported IC50.

1. CN(C)C(=N)c1ccc(-c2cc(CNC(=O)c3ccc(Cl)s3)on2)cc1 = ≤ 100 nM
2. O=C(NCc1cn(-c2ccc(N3CCCCC3=O)cc2)nn1)c1ccc(Cl)s1 = ≤ 100 nM
3. Cc1ccc(C2=NOC(CNC(=O)c3ccc(Cl)s3)C2)cc1 (centres unmarked) = ≥ 500 nM

Attention now turns to another entry.
Briefly, IC50 measured for C[C@H](NC(=O)c1ccc(Cl)s1)c1cc(-c2ccc(C(=N)N3CCCC3)cc2)no1 : ≥ 500 nM

###

molecular target: human plasma protein factor Xa (Homo sapiens); construct: measure proteolytic activity of the enzyme (factor Xa); purchased Haematologic Technologies (Essex Junction, Vt.); host or cells: human plasma; test: Factor Xa IC50 determination: cleavage of paranitroanilide substrate S-2765 in 96-well plates; format: biochemical; settings: fXa 1 nM, S-2765 100 μM, Tris buffered saline pH 7.4, room temperature
# IC50 values compiled below

Some entries whose results are on file:
1) CN(C)Cc1cccc(-c2cccc(C3=NOC(CNC(=O)c4ccc(Cl)s4)C3)c2)c1 (centres unmarked) = ≥ 0.5 µM
2) CN(Cc1cc(-c2ccc(C(=N)N3CCCCC3)cc2)no1)C(=O)c1ccc(Cl)s1 = ≥ 0.5 µM
3) Cc1ccn(-c2ccc(C3=NOC(CNC(=O)c4ccc(Cl)s4)C3)cc2)c(=O)c1 (centres unmarked) = ≤ 0.1 µM
4) CC(=N)N1CCC(c2cc(CNC(=O)c3ccc(Cl)s3)on2)CC1 = ≥ 0.5 µM
5) CN(C)C(=N)c1ccc(-c2nc(CNC(=O)c3ccc(Cl)s3)cs2)cc1 = 0.1 to 0.5 µM
6) O=C(NCc1cn(-c2ccc(-n3ccccc3=O)cc2O)nn1)c1ccc(Cl)s1 = ≤ 0.1 µM
7) CC1(CNC(=O)c2ccc(Cl)s2)CC(c2ccc(C(=N)N3CCC3)cc2)=NO1 (centres unmarked) = ≤ 0.1 µM
8) CN(Cc1ccco1)C(=N)c1ccc(-c2nc(CNC(=O)c3ccc(Cl)s3)co2)cc1 = 0.1 to 0.5 µM

# molecule O=C(NCc1cc(-c2ccc(C(=O)N3CCCC3)cc2)no1)c1ccc(Cl)s1 ; its IC50 = 0.1 to 0.5 µM

Note to self: IC50 recorded for O=C(NCc1cn(-c2ccc(N3CCCNCC3)nc2)nn1)c1ccc(Cl)s1 was ≤ 0.1 µM

Reported IC50 for CN(Cc1ccco1)C(=N)c1ccc(C2=NOC(C)(CNC(=O)c3ccc(Cl)s3)C2)cc1 (centres unmarked) was ≤ 0.1 µM

According to the records, this molecule CC(C)Oc1cc(C(=N)N2CCCC2)ccc1C1=NOC(CNC(=O)c2ccc(Cl)s2)C1 (centres unmarked) displays IC50 of ≤ 0.1 µM
